System: MS2 coat protein
Experiment: apparent KD of MS2 coat protein; designed switch direction (-1 OFF switch, 1 ON switch): -1; higher = weaker reporter binding
Conditions: Eterna round: R95; input ligand: FMN 200 uM
Give apparent KD of MS2 coat protein for every item shown.

>>> assay_result("AGUAGAUCUACGCUUGCGUGGAUCUGCUAUGCAGGUGUUACAUGAGGAUCACCCAUGUCCUCAUUUGCUCGUCUUAU [JL turnoff v2 99.14] (puzzle: Sensor v3, turn-off variant 2)")
"133 nM"

Would you mind giving apparent KD of MS2 coat protein for every sequence in the list below?
1. AGUACUAACACGAAAGUGUUAGUUCAAUAAGCUUGUGAAACAUGAGGAUCACCCAUGUCCUCAUAAGCUCGUCUUAU [salish99_TOv2_r3_040] (puzzle: Sensor v3, turn-off variant 2)
2. ACAAAGUGAGGAUAUACUAAAACCCUCAUACCCAAAAGGGAACAUGAGGAUCACCCAUGUAGAAGGCACAUAAU [Esmainleor] (puzzle: Exclusion 2)
3. UUUAAUUUUUUUUUUUUACAAGCUUUUUGCUCGUCUUAUACAUGAGGAUCACCCAUGUAAGUGGAGGGUAAAUUAUC [JMF 87] (puzzle: Sensor v3, turn-off variant 2)
4. GCUAGAGCAGGAUAUUCAAAACCUCACAUGAGGAUCACCCAUGUGGCCGAAAGGCCGGGAGGAGAAGGGCUCUAGC [Mat - Exclusion 5 - Eli mod - D84] (puzzle: Exclusion 5)
5. AUAAUAAUAUAGGAUAUCGAAUUAAUUAUUUAACGAGAAGGAUGAACAUGAGGAUCACCCAUGUGGUAUCAUGG [Mat - Exclusion 6 - JL Mod - D34] (puzzle: Exclusion 6)
6. AGAUGUAGAUACCGAUCCUACAUGAGGAUCACCCAUGUAGCUAGACGUGCUCGCGUAGCUCGUCAGACUACCAGUAG [salish99_TOv1_r3_087] (puzzle: Sensor v3, turn-off variant 1)

1. 15.8 nM
2. 549 nM
3. 19.4 nM
4. 41.6 nM
5. 255 nM
6. 242 nM
